Just for reference, patent US8343475B2 is where these values come from.

# System: Enterococcus faecalis ATCC29212
# Type: cell-based
# ASSAY_SETUP: ATCC29212
Residues, ends and D or L forms follow the SMILES beside them.

MOLECULE	TARGET_OF_ASSAY	MIC
CC(C)[C@H](NC(=O)[C@H](CCCNC(=N)N)NC(=O)[C@H](CCCCN)NC(=O)[C@@H](NC(=O)[C@H](Cc1ccccc1)NC(=O)[C@H](CCCCN)NC(=O)[C@H](Cc1c[nH]c2ccccc12)NC(=O)[C@@H](NC(=O)[C@H](C)N)C(C)C)C(C)C)C(N)=O [HHC123, AVWKFVKRV] (H-AVWKFVKRV-NH2; N-terminus assumed)	Enterococcus faecalis ATCC29212	>240 µM
CC[C@H](C)[C@H](NC(=O)[C@H](Cc1c[nH]c2ccccc12)NC(=O)[C@H](Cc1c[nH]c2ccccc12)NC(=O)[C@H](CCCCN)NC(=O)[C@H](CC(C)C)NC(=O)[C@H](CCCNC(=N)N)NC(=O)[C@H](CCCCN)NC(=O)[C@@H](N)CCCNC(=N)N)C(=O)N[C@@H](Cc1ccc(O)cc1)C(N)=O [HHC66, RKRLKWWIY] (H-RKRLKWWIY-NH2; N-terminus assumed)	Enterococcus faecalis ATCC29212	50 µM
CC[C@H](C)[C@H](NC(=O)[C@@H](N)CCCCN)C(=O)N[C@@H](Cc1c[nH]c2ccccc12)C(=O)N[C@@H](Cc1c[nH]c2ccccc12)C(=O)N[C@@H](Cc1c[nH]c2ccccc12)C(=O)N[C@@H](Cc1c[nH]c2ccccc12)C(=O)N[C@@H](CCCNC(=N)N)C(=O)N[C@@H](CCCCN)C(=O)N[C@@H](CCCNC(=N)N)C(N)=O [HHC8, KIWWWWRKR] (H-KIWWWWRKR-NH2; N-terminus assumed)	Enterococcus faecalis ATCC29212	24 µM
CC[C@H](C)[C@H](NC(=O)[C@H](CCCNC(=N)N)NC(=O)[C@H](C)NC(=O)[C@H](CC(C)C)NC(=O)[C@@H](N)CCCNC(=N)N)C(=O)N[C@H](C(=O)N[C@H](C(=O)N[C@H](C(=O)N[C@@H](CCCNC(=N)N)C(=O)N[C@H](C(=O)N[C@@H](C)C(=O)N[C@@H](CCCNC(=N)N)C(N)=O)C(C)C)[C@@H](C)CC)C(C)C)C(C)C [Bac2A, RLARIVVIRVAR-NH2, reference compound] (H-RLARIVVIRVAR-NH2; N-terminus assumed)	Enterococcus faecalis ATCC29212	12 µM
CC[C@H](C)[C@H](NC(=O)[C@H](Cc1ccccc1)NC(=O)[C@H](CCCCN)NC(=O)[C@H](Cc1ccccc1)NC(=O)[C@H](CCCNC(=N)N)NC(=O)[C@@H](N)CCCNC(=N)N)C(=O)N[C@@H](CCCNC(=N)N)C(=O)N[C@@H](Cc1c[nH]c2ccccc12)C(=O)N[C@@H](Cc1c[nH]c2ccccc12)C(N)=O [HHC100, RRFKFIRWW] (H-RRFKFIRWW-NH2; N-terminus assumed)	Enterococcus faecalis ATCC29212	12 µM

---

# Test system: wild-type Salmonella enterica ssp. typhimurium
# Assay type: cell-based
Residues, ends and D or L forms follow the SMILES beside them.
EXPERIMENTAL_ENDPOINT: MIC S. typhi

COMPOUND	RESULT
CC[C@H](C)[C@H](N)C(=O)N[C@@H](CC(C)C)C(=O)N[C@@H](CCCCN)C(=O)N[C@@H](Cc1c[nH]c2ccccc12)C(=O)N[C@@H](CCCCN)C(=O)N[C@@H](Cc1c[nH]c2ccccc12)C(=O)N1CCC[C@H]1C(=O)N[C@@H](Cc1c[nH]c2ccccc12)C(=O)N[C@@H](Cc1c[nH]c2ccccc12)C(=O)N[C@@H](CCCCN)C(=O)N[C@@H](Cc1c[nH]c2ccccc12)C(=O)N[C@@H](CCCNC(=N)N)C(=O)N[C@@H](CCCNC(=N)N)C(N)=O [HH970, ILKWKWPWWKWRR] (H-ILKWKWPWWKWRR-NH2; N-terminus assumed)	16 µg/mL
CC[C@H](C)[C@H](NC(=O)[C@@H](N)CCCCN)C(=O)N[C@@H](Cc1c[nH]c2ccccc12)C(=O)N[C@H](C(=O)N[C@@H](CCCNC(=N)N)C(=O)N[C@@H](Cc1c[nH]c2ccccc12)C(=O)N[C@@H](CCCCN)C(N)=O)C(C)C [HH17, KIWVRWK-NH2] (H-KIWVRWK-NH2)	>50 µg/mL
CC[C@H](C)[C@H](NC(=O)[C@H](CCCNC(=N)N)NC(=O)[C@H](CC(C)C)NC(=O)[C@H](CCCNC(=N)N)NC(=O)[C@@H](N)C(C)C)C(=O)N[C@@H](CCCNC(=N)N)C(=O)N[C@H](C(=O)N[C@@H](CCCNC(=N)N)C(=O)N[C@H](C(=O)N[C@H](C(=O)N[C@@H](CCCNC(=N)N)C(=O)N[C@@H](CCCCN)C(N)=O)[C@@H](C)CC)C(C)C)C(C)C [HH11, VRLRIRVRVIRK] (H-VRLRIRVRVIRK-NH2; N-terminus assumed)	6 µg/mL
CC[C@H](C)[C@H](NC(=O)[C@H](CCCNC(=N)N)NC(=O)[C@H](Cc1c[nH]c2ccccc12)NC(=O)[C@H](CCC(N)=O)NC(=O)[C@@H](N)Cc1c[nH]cn1)C(=O)N[C@@H](CCCNC(=N)N)C(=O)N[C@H](C(=O)N[C@@H](C)C(=O)N[C@H](C(=O)N[C@@H](CCCNC(=N)N)C(=O)N[C@@H](CCCNC(=N)N)C(=O)N[C@@H](Cc1c[nH]cn1)C(N)=O)C(C)C)C(C)C [HH14, HQWRIRVAVRRH] (H-HQWRIRVAVRRH-NH2)	25 µg/mL
CC[C@H](C)[C@H](NC(=O)[C@H](CCCNC(=N)N)NC(=O)[C@H](CC(C)C)NC(=O)[C@H](CCCNC(=N)N)NC(=O)[C@@H](N)C(C)C)C(=O)N[C@@H](CCCNC(=N)N)C(=O)N[C@H](C(=O)N[C@@H](C)C(=O)N[C@H](C(=O)N[C@H](C(=O)N[C@@H](CCCNC(=N)N)C(=O)N[C@@H](CCCCN)C(N)=O)[C@@H](C)CC)C(C)C)C(C)C [HH8, VRLRIRVAVIRK] (H-VRLRIRVAVIRK-NH2)	6 µg/mL
CC(C)[C@H](NC(=O)[C@H](CCCNC(=N)N)NC(=O)[C@H](Cc1ccccc1)NC(=O)[C@H](CCCNC(=N)N)NC(=O)[C@H](Cc1ccccc1)NC(=O)[C@H](CCCNC(=N)N)NC(=O)[C@H](Cc1ccccc1)NC(=O)[C@H](CCC(N)=O)NC(=O)[C@@H](N)Cc1c[nH]cn1)C(=O)N[C@@H](CCCNC(=N)N)C(=O)N[C@@H](CCCNC(=N)N)C(=O)N[C@@H](CCCCN)C(N)=O [HH13, HQFRFRFRVRRK] (H-HQFRFRFRVRRK-NH2; N-terminus assumed)	12 µg/mL
CC[C@H](C)[C@H](N)C(=O)N[C@@H](CC(C)C)C(=O)N[C@@H](CCCCN)C(=O)N[C@@H](Cc1c[nH]c2ccccc12)C(=O)N[C@@H](CCCCN)C(=O)N[C@@H](Cc1c[nH]c2ccccc12)C(=O)N1CCC[C@H]1C(=O)N[C@@H](Cc1c[nH]c2ccccc12)C(=O)N[C@@H](Cc1c[nH]c2ccccc12)C(=O)N1CCC[C@H]1C(=O)N[C@@H](Cc1c[nH]c2ccccc12)C(=O)N[C@@H](CCCNC(=N)N)C(=O)N[C@@H](CCCNC(=N)N)C(N)=O	31 µg/mL

---

# Tested on: Staphylococcus aureus ATCC25923
# Type: cell-based
# ASSAY_SETUP: ATCC25923
Residues, ends and D or L forms follow the SMILES beside them.
EXPERIMENTAL_ENDPOINT: MIC S. aureus (µg/mL)

COMPOUND	EXPERIMENTAL_ENDPOINT	MEASUREMENT_UNITS	NUMERIC_VALUE
CC(C)[C@H](NC(=O)[C@H](CCCNC(=N)N)NC(=O)[C@H](Cc1ccccc1)NC(=O)[C@H](CCCNC(=N)N)NC(=O)[C@H](Cc1ccccc1)NC(=O)[C@H](CCCNC(=N)N)NC(=O)[C@H](Cc1ccccc1)NC(=O)[C@H](CCC(N)=O)NC(=O)[C@@H](N)Cc1c[nH]cn1)C(=O)N[C@@H](CCCNC(=N)N)C(=O)N[C@@H](CCCNC(=N)N)C(=O)N[C@@H](CCCCN)C(N)=O [HH13, HQFRFRFRVRRK] (H-HQFRFRFRVRRK-NH2; N-terminus assumed)	MIC S. aureus	µg/mL	12

---

# Tested on: CXCL1 (Gro-α) release by human PBMC
# ASSAY_INFO: Chemokine induction in PBMC (capture ELISA)
# Format: cell-based
# ASSAY_SETUP: 20 μg/ml peptide, background (196) subtracted
No end group written: not given here.
EXPERIMENTAL_ENDPOINT: Chemokine induction Gro-α (pg/mL)

                                   substance  measurement_units  numeric_value
 0       1027 (KKQVSRVKVWRK) [compound 1027]              pg/mL              8
 1          1007 (WNRVKWIRR) [compound 1007]              pg/mL             65
 2          1023 (IRVWVLRQR) [compound 1023]              pg/mL             36
 3          1015 (VLIRWNGKK) [compound 1015]              pg/mL             42
 4  WRWRVRVWR (WRWRVRVWR-NH2) [compound 1031]              pg/mL            172
 5          1024 (RIRVIVLKK) [compound 1024]              pg/mL             20
 6          1039 (IWVIRRVWR) [compound 1039]              pg/mL            469
 7            1045 (RWWRIVI) [compound 1045]              pg/mL             13
 8          1008 (RIKWIVRFR) [compound 1008]              pg/mL            109
 9  LVRAIQVRAVIR (LVRAIQVRAVIR-NH2) [compound 1001]              pg/mL             88
10     VIWIRWR (VIWIRWR-NH2) [compound 1041]              pg/mL            110
11          1038 (IVVRRVIRK) [compound 1038]              pg/mL             12
